System: α7 integrin (LacZ reporter in α7+/LacZ myotubes)
experimentNotes: Myotube α7 integrin FDG assay (Burkin assay in myotubes, 96-well)
Type: cell-based, mouse
conditionSummary: myotubes, 0.5 uM
quantityMeasured: Burkin Assay in Myotubes, α7 integrin LacZ reporter signal relative to DMSO

CCCCN1CC(=O)N2Cc3[nH]c4ccccc4c3C[C@H]2C1=O [MLS001165424-01] | 0.8771
O=c1[nH]c2ccccc2nc1-c1c[nH]c2ccccc12 [MLS001181936-01] | 0.9197
CC1CCN(C(CNS(=O)(=O)c2ccccc2)c2ccccc2)CC1 (stereo not drawn) [MLS002171615-01] | 1.107
Cc1cccc2c(N=Nc3ccc(S(=O)(=O)Nc4ccc(Cl)cc4)cc3[N+](=O)[O-])c(O)[nH]c12 [MLS000393762-01] | 0.9402
CCN(CC(=O)NCc1cccs1)C(=O)COc1ccc(C(N)=O)cc1 [MLS002163101-01] | 1.045
CCCOc1nc(SCCC)nc2c1cnn2-c1ccccc1 [MLS000737953-01] | 0.9665
Cc1nc(Nc2ccccc2F)c2oc3ccccc3c2n1 [MLS001215123-01] | 0.9466
Cl.O=C1C2CCCN2C(=O)N1CCCN1CCN(c2cccc(Br)c2)CC1 (stereo not drawn) [MLS001180929-01] | 0.899
CC1Cc2ccccc2N1C(=O)CSc1nnc(N)s1 (stereo not drawn) [MLS001160611-01] | 0.9452
O=C(N/N=C/c1c[nH]c2ccccc12)c1cc(Cl)ccc1O [MLS001196572-01] | 0.9236
Cc1cccc(C)c1NCC(=O)N1CCN(Cc2ccccc2)CC1.Cl [MLS001176153-01] | 1.007
O=C(O)c1cc(N=Cc2c(O)c3ccccc3oc2=O)ccc1O [MLS001216260-01] | 1.005
CN(CC(=O)Nc1cccc(F)c1)C(=O)c1ccc(-c2ccc(Cl)cc2)o1 [MLS001078811-01] | 0.9163
Cc1cccc(NCC(=O)N/N=C\c2ccccn2)c1 [MLS000710288-01] | 1.076
CC(=O)Nc1ccc(NC(=O)C/C(C)=N/NC(=O)COc2cc(C)c(Br)cc2Br)cc1 [MLS000912562-01] | 0.898
CCCCN(CCCC)CCNC(=O)c1cn(C)c2ccc(S(=O)(=O)N(C)C3CCCCC3)cc2c1=O [MLS000913117-01] | 1.09
CCC(=O)c1ccc(OCC(O)CN2CC(C)OC(C)C2)cc1.O=C(O)C(=O)O (stereo not drawn) [MLS000053342-01] | 1.059
CC(C(=O)Nc1ccc(C#N)cc1)N(C)CC(=O)Nc1cccc(F)c1 (stereo not drawn) [MLS001033255-01] | 0.91
